Provenance of the data: patent US20160040149A1

Please respond with reported Fold Activity for every item in the list.
Experiment notes: Saturation mutagenesis of SEQ ID NO:109: dicamba decarboxylation activity of point mutants (CO2 released), fold of backbone (Tables 7, 8, Megatable 1)
Assay setup: decarboxylation activity (CO2 released) of point mutant vs unmutated backbone protein; backbone SEQ ID NO: 109
Give bare numbers, in fold.

Some solved entries appear below for comparison.
The measured Fold Activity associated with 76 (protein, listed as Polymorphum gilvum) MAKKIDIFNHIWPEPFFKALIAHIGEMTDITMRSGAVPMMTNLDRRFEVMDMFGPDYMQVLSLASPPLEKLADPAKALELSRIGSDSLAELCQRYPERFPAFIGTAPLSNPAAVVGECRRAIEDLGAAGMQIFTNVAGKPLDLAEFEPFFEYMASAGKPVWLHPARGEAFADYQTEKRSEYEIWWTFGWPYETSAAMARLVFSRMFDKYPGLKVITHHAGGMVPFFEGRVGPGWDQMGARTTDRDLAAVRKALKRPHLDYFKEFYADTASFGSRKAIEHAIEFFGEDRVLFASDAPFDPEGGPMYIRETMRCIDSLDLTDAQRRKIYHGNATALLGLSL reads 1.1

The measured Fold Activity associated with 6 (protein, Treponema brennaborense) MAEILSPEESIYYSKLSNDILAEGIKKNPTRFRGFAALPTPDPIQAAMELERCIKLGGFVGAIINGHINGHYLDEIQFDPILEAADALDVPLYIHPAVPPKAIIDTYYKMNDTYAQTVMVSGGWGWHIETGVHVLRLISSGVFDRHPNLKIVIGHLGEGLPFFMHRLNNAIGGNLKKSYSTYLKENIYYTISGFNDPDLFQFVLKKVGENNIMFSSDYPFNFPKREVELFNELNISEEVREKISFKNAERILKI reads 0.9

The measured Fold Activity associated with 59 (protein, alpha proteobacterium) MAPSVIDAHAHFLPGSLVTALRSRSDAPDIRTDSNGGESFGIYRTRMPYGRTYDALDVRLARMDELGVDRQILSLPGLFGIDSRPVSQALPLVRAFNDGVADLVRKHPDRFSGIAALPLADLDAAQEEYRRARGDLGLSGLILPGDTFVSVAAAERVRPLFELAATIGGLIFVHPGPLPDETGSAVDAPAPHTDSVVHRRVTVDIQNRMTEVMVTLALTDFLAPYPSVPVQVANLGGSLPFVIERMDHVYALRNPEAPPPSLSLRSLYVDAASLGPRAIALAAEVYGADRVLFGSDYPIFDDGRCLDAVRQTRLSPDARALIAGGNAARMLTQT reads 0.9

Provide Fold Activity for all items below, preserving their order.
1. 107 (protein, listed as Rhodopseudomonas palustris) MAIIDIHGHYTTAPKALEDWRNRQIAGIKDPSVMPKVSELKISDDELQASIIENQLKKMQERGSDLTVFSPRASFMAHHIGDFNVSSTWAAICNELCYRVSQLFPDNFIGAAMLPQSPGVDPKTCIPELEKCVKEYGFVAINLNPDPSGGHWTSPPLTDRIWYPIYEKMVELEIPAMIHVSTSCNTCFHTTGAHYLNADTTAFMQCVAGDLFKDFPELKFVIPHGGGAVPYHWGRFRGLAQEMKKPLLEDHVLNNIFFDTCVYHQPGIDLLNTVIPVDNVLFASEMIGAVRGIDPRTGFYYDDTKRYIEASTILTPEEKQQIYEGNARRVYPRLDAALKAKGK
2. 43 (protein, listed as Rhizobium leguminosarum) MAQGKIALEEHFAIPETLQDSAGFVPGDYWTELSARLLDIQDKRLRLMDTHGIEKMILSLNAPAVQAIPDKAKAVEISRRANDFLAEQCVKNPNRFLGFAALPLQDPDAATQELQRCVTTMGFVGALVNGFSQEGDGTTPLYYDLPQYRPFWAEVEKLDVPFYLHPRNPLPQDSRIYAGHSWLMGPTWAFAQETAVHALRLMGSGLFDEHPALRIIVGHMGEGLPYMMWRIDNRNAWVKVEKSYPAKRPIADYFNENFYITTSGNFRTQSLIDAMLEIGADRILFSADWPFENVDHAANWFDSATISEADRLKIGRTNAVSLFKLDR
3. 51 (protein, listed as Mycobacterium gilvum) MARVIAIEEHYAHPGLQPAEALANLRKHPQLARIQDKLEDLGAGRLADMDAAGIDMQVLSHTVPGAEALPAAQAVDVVRQTNDDLAEVIAAHPDRFAGFAALPMRDPQAAATELQRAVGTLGFCGAMINGLIEGRFLDHPDFTPLLSTAADLGVPLYLHPSFPPPQVAQIYFGGLPPVLADLLATAGWGWHAETALHVLRLISTGVFDRLPELRVIVGHMGEMIPFALARIDTVLSPMTELRQPVAQYFQTNVWFTTSGYTTFPPLQCALSTVGIDRLIFSVDYPYTDNASARALLDTAPISPVDREKLAHATVEALLRV
4. 87 (protein, listed as Novosphingobium sp.) MASDIATAADLQTGGRQGYLRIATEEAFATRDQIDVYLRMVRDGTADRGMTSLWGFYAQSPSARATQIIERLLDLGEQRLADMDAAGIDKAVLALTSPGVQPLLDMEEARRIAGNANDRLAERCAAHPDRFIGMTAVAPQDPQWSAREILRGATQLGFKGVQINSHTQGRYLDEPFFDPIFRALGDVGQPLYIHPGTPPDSMIGPLLDAGLDGAIYGFGVETGMHLLRLITAGIFDRYPDLQIMVGHMGEALPYWLYRLDYMHQAGIRSQRYERMRPLKRTIAGYFRSNVLVTCSGMAWEPAIQFARQVMGEDRVMYAMDYPYQYEADEVRALDVMDLSPESKRKFFQTNAERWFDL
5. 68 (protein, listed as Hoeflea phototrophica) MAIIDAHTHTLCPAVNEKVAGTIKPDSVPYQRDMSPESKEQDHTQFPELKIMFNQVERRLADMARMGIDRQVIAPAPGQQHYWAEPKLLAEISALQNDHVAELVARAPDRFAGIGTLPMTDPDAAVAEITRATRELGLRVFQIDSRVMERELSDASLDPIYAALEAAGAGLMIHPLGFSNGERLTPFFMVNSVAQPLEELLAFNHLVFGGVLDRFPKLKVYIAHGGGFAPFYIGRFDHAWKVRPEVNRLTPSAPSTYLRRIYFDTCVYRTDHIETLVRTVGADRVMLGSDYPFDMGDTDPLGLLNACQGLSDDEKATISSKVAIDFFGLET

1. 1.7
2. 1
3. 1.7
4. 1.4
5. 1.3
